- target-system: T1, Recombinant human TSG-6 (R&D Biosystems, catalog #2104-TS) (human, UniProt P98066 18-277)
- T1 construct: Bought protein; also called hTSG-6; Tumor necrosis factor-inducible gene 6 protein
- T1 sequence (P98066 18-277 limits assumed): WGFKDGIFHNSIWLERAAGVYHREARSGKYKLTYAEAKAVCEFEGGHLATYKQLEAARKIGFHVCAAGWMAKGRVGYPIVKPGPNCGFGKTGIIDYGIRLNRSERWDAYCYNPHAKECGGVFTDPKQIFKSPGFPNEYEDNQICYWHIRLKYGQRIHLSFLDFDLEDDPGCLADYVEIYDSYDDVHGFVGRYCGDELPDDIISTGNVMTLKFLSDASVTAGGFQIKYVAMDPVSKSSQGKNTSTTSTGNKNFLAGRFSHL
- assay-name: ELISA of hybridoma supernatants on recombinant human TSG-6

binder | binding result
5D9 (antibody, V domains shown, Entries as printed include a leader and part of the constant region) VH: QVQLQQSGAELARPGASVKLSCKASDDTFINYGINWVKQRTGQGLEWIGETFPSNGNTFYNEKFKGKATLTADRSSSTTYMELRSLTSEDAAVYFCARHSNLPYFDHWGQGSTLTVSS VL: DIVMTQSPSSLSVSAGEKVTMSCKSSQSLLNSGNQKNYLAWYQQKPGQPPKLLIYGASTRESGVPERFTGSGSGTDFTLTISSVQAEDLAVYYCQNDHSYPFTFGGGTNLEIKR | binds
3C6 (antibody, V domains shown, Entries as printed include a leader and part of the constant region; also called anti-TSG-6 antibody 3C6) VH: EVQLQQSGPELVKPGASVKIPCKASGYTFTDYNMDWVKQSHGESLEWIGDIYPNNGGTIYNQKFKDKATLTVDKSSSTAYMELRSLTSEDNAVYYCARKTGTGFDYWGQGTTLTVSS VL: QIVLSQSPAILSASPGEKVTMTCRARSSVIYMHWYQQKPGSSPKPWIYATFNLASGVPARFSGSGSGTSYSLTISRVEAEDAATYYCQQWSSNPPTFGSGTKLEIKR | binds
4E4 (antibody, V domains shown, Entries as printed include a leader and part of the constant region) VH: QVQLQQPGAELVKPGASVKLSCKASGYTFTSYWMHWVKQRPGQGLEWIGMIHPNSGSTNYNEKFKNKATLTVDKSSSTAYMQLSSLTSEDSAVYYCAPRMFDDYDDYWGQGTTLTVSS VL: QIVLTQSPAIMSASLGERVTMTCTASSSVSSSYLHWYQQKPGSSPKLWIYSTSNLASGVPVRFSGSGSGTSYSLTISRMEAEDAATYYCHHYHRSPYTFGGGTKLEIKR | binds

Reference source: patent US20220153834A1
